Molecular target: dynein light chain LC8 (UniProt P63167 1-89)
Sequence (P63167 whole entry): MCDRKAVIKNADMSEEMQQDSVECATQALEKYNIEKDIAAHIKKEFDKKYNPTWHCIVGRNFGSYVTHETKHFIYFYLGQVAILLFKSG
Experiment: ITC
pKd: −log10 of the molar value.

{"columns": ["binder", "pKd"],
 "data": [
  ["EKELRHIGTQISSD [ICE1 peptide]", 5.44],
  ["HPETQDSSTQTDTS [SPAG5 peptide]", 5.89],
  ["YGCTRHQSVQTEDG [MAST1 peptide]", 5.77],
  ["QDFMKHLDKKTQTPKL [CCL7 peptide]", 5.55],
  ["YDSMDHLDKQTQTPKT [CCL2 peptide]", 5.33],
  ["NQSFTTASTQTPPQ [CAPRIN2 peptide]", 5.59]
]}
